Collected IC50 values appear next to each entry.
molecular target: Xanthine oxidase (XOD); construct: described in the introduction as a 290 kDa homodimer of mammals; the high specific activity could also fit a microbial enzyme; test: UV assay of uric acid formation at […] nm, test method A (inhibitor preincubated with enzyme, started by xanthine); details: xanthine substrate, sodium pyrophosphate buffer pH 7.5, 37 °C, other methods (B; C, inhibitor added to the running reaction with superoxide) also printed in the row, read-out: IC50 ^[a]/μmol L^-1
Number only, in µM; omit the unit.

// fetch Xanthine oxidase (XOD) IC50 for `O=c1cc(-c2ccc(O)c(O)c2)oc2cc(O)cc(O)c12`
4.34

What do you have for `O=c1c(O)c(-c2cc(O)c(O)c(O)c2)oc2cc(O)cc(O)c12` ?
5
